Below, each entry is listed alongside its reported TGI.
- Tested on: U251 CNS
- assay: NCI tumour cell line growth inhibition, 48 h
Where a SMILES comes first, the peptide text is derived from it. The star is where a group is joined. Boc = CC(C)(C)OC(=O)*
experimental_readout: TGI

molecule	experimental_readout	reported_result
Cc1cc(S(=O)(=O)Nc2nc3cscc3c(=O)n2Cc2ccccc2)c(S)cc1Cl	TGI	> 100 µM
N/C(=N\S(=O)(=O)c1ccc(S(=O)(=O)c2ccccc2)s1)Nc1ccc(Cl)cc1	TGI	27.8 µM
OCc1ccc(-c2ccc(-c3ccc(CO)o3)[se]2)o1	TGI	> 100 µM
O=c1c(Oc2ccc(F)cc2F)cc2cnc(NC3CCOCC3)nc2n1CCCO	TGI	> 25 µM
COC(=O)c1c2c(c[n+]([O-])c1C)C(=O)C=CC2=O	TGI	5.22 µM
COc1cccc(-c2nc3sccn3c2-c2ccnc(NCCCNS(=O)(=O)c3cccc(F)c3)c2)c1	TGI	> 100 µM
CCSc1sc(=Nc2ccc(N=c3sc(C)c(SC)s3)cc2)sc1-c1ccc(C)cc1	TGI	> 100 µM
COC(=O)C(Cc1c[nH]c2ccccc12)NC(=O)C(Cc1c[nH]c2ccccc12)NC(=O)C(Cc1c[nH]c2ccccc12)NC(=O)C(Cc1c[nH]c2ccccc12)NC(=O)C(Cc1c[nH]c2ccccc12)NC(=O)C(Cc1c[nH]c2ccccc12)NC(=O)OC(C)(C)C (stereo not drawn) (Boc-WWWWWW-OMe; configuration not given here)	TGI	> 100 µM

###

- Tested on: CAKI-1 renal
- assay: NCI tumour cell line growth inhibition, 48 h; in the data active means GI50 below about 0.43 µM; inactive means the rest
Outcome codes: True for active, False for inactive

> print(dat)
                                    compound  class.label
 1   Cc1sc2nc(-c3ccncc3)c(/C=N/N=C(N)N)n2c1C        False
 2  CNC(=O)c1ccc(N2CCN(Cc3ccc4nc(C)c(=O)[nH]c4c3F)CC2)c(F)n1        False
 3  [Cl-].[O-]/N=C(\c1ccccc1)c1ccccn1.[O-]/N=C(\c1ccccc1)c1ccccn1.[O-]/N=C(\c1ccccc1)c1ccccn1.[Sm+3]        False
 4                              [Cl][Hg][Cl]        False
 5  C#CCOc1cccc(-c2ncnc3cc(NC(=O)CCl)ccc23)c1         True
 6  C=C1C(=O)O[C@H]2C[C@@H]1CC/C(C)=C/CC/C(C)=C/CC[C@H]2C        False
 7  CC(=O)OCC1OC(n2c(-c3ccc(Cl)cc3)ccc(C#N)c2=S)C(OC(C)=O)C(OC(C)=O)C1OC(C)=O (stereo not given)        False
 8  COc1ccc(S(=O)(=O)N2CC(C)(C)CN(S(=O)(=O)c3ccc(OC)cc3)C2C(=O)NO)cc1        False
 9  COc1cc(-c2cc3ncccc3c3nc(N)c4cccnc4c23)cc(OC)c1OC         True
10  CCC[CH2][Sn]([CH2]CCC)([CH2]CCC)[O]c1ccc(Cl)cc1Cl         True

###

- Test system: TK-10 renal
- assay: NCI tumour cell line growth inhibition, 48 h

molecule	TGI
[N-]=[N+]=C1N=CN=C1c1ncn[nH]1	> 100 µM
CCCCCC(=O)C(C)C1=Nc2nnc(CCCCCCCc3nnc4n3C(=O)C(C(C)C(=O)CCCCC)=N4)n2C1=O (stereo not drawn)	> 100 µM
CCC12CCCN(Cc3ccccc3)C1c1c([nH]c3ccccc13)C(C(=O)OC)C2 (stereo not drawn)	> 10 µM
CCC[CH2][Sn]([CH2]CCC)([CH2]CCC)[O]c1ccc(Cl)cc1Cl	0.61 µM
CN(C)CCNC(=O)c1cccc2c(NCCN(C)C)c3ccccc3nc12	21.9 µM
CCOC(=O)c1ccc(Nc2c3c(nc4ccccc24)CCCC3)cc1	> 100 µM
COC(=O)[C@@H](C)C[C@H](Cc1ccccc1)NC(=O)c1csc(CC[C@H](C(C)C)N(C)C(=O)[C@@H](NC(=O)[C@H]2CCCCN2C)C(C)C)n1	> 33.3 µM
C1CCC2(CC1)O[C@@H]1[C@@H](O2)[C@@H](O[C@H]2O[C@@H]3COC4(CCCCC4)O[C@H]3[C@@H]3OC4(CCCCC4)O[C@@H]23)O[C@@H]2COC3(CCCCC3)O[C@@H]12	> 100 µM
